target: Feline FcRn complex (FcRn-alpha subunit and beta-microglobulin) (feline); assay: SPR (Biacore), feline FcRn captured on SA chip, IgG flowed over, pH 7.4
Reported endpoint: Kd (nM)

Binder	Readout value
feline IgG1a Fc mutant S428L, S434W (antibody, part only; not given: Variable domains, not shown: another chain or arm of the molecule; small tags and cut ends) constant: ASTTAPSVFPLAPSCGTTSGATVALACLVLGYFPEPVTVSWNSGALTSGVHTFPAVLQASGLYSLSSMVTVPSSRWLSDTFTCNVAHPPSNTKVDKTVRKTDHPPGPKPCDCPKCPPPEMLGGPSIFIFPPKPKDTLSISRTPEVTCLVVDLGPDDSDVQITWFVDNTQVYTAKTSPREEQFNSTYRVVSVLPILHQDWLKGKEFKCKVNSKSLPSPIERTISKAKGQPHEPQVYVLPPAQEELSRNKVSVTCLIKSFHPPDIAVEWEITGQPEPENNYRTTPPQLDSDGTYFVYSKLSVDRSHWQRGNTYTCSVLHEALHWHHTQKSLTQSPGK	41.8
